Data provenance is paper PMC10221469.

System: SARS-CoV-2 pseudovirus (lentiviral vector, spike D614G)
Format: cell-based
test_context: read-out: IC50 pseudovirus entry (luciferase output)
measure_name: pIC50
Worth noting: pIC50 values are minus log10 of concentrations stated in mol/L.

Lookup: Give reported pIC50 value for COc1cc(NCc2ccc3nc(N)nc(N)c3c2C)cc(OC)c1OC [Trimetrexate]
Found: 6.65

Lookup: Consider the compound C#CCC(Cc1cnc2nc(N)nc(N)c2n1)c1ccc(C(=O)N[C@@H](CCC(=O)O)C(=O)O)cc1 (some centres unmarked) [Pralatrexate] . State its measured pIC50.
Found: 7.92
